Value source: BindingDB's records for doi:10.1016/0960-894X(96)00287-9

- experiment.summary: Compound was tested for inhibition of NK1 receptor from gerbil midbrain; NT means not tested
pIC50: −log10 of the molar value.
endpoint: pIC50

The examples below pair each entry with its known result.
O=C(Cc1ccccc1)N[C@H]1CCN(C(=O)c2cc(Cl)cc(Cl)c2)[C@H](Cc2ccccc2)C1: 7.22
O=C(c1cccc2ccccc12)N1CC[C@H](NCc2ccnc3ccccc23)C[C@H]1Cc1ccccc1: 6.96
O=C(c1cc(Cl)cc(Cl)c1)N1CC[C@H](N(Cc2ccnc3ccccc23)C(=O)C(F)(F)F)C[C@H]1Cc1ccccc1: 6.22
NC(=O)CN[C@H]1CCN(C(=O)c2cc(C(F)(F)F)cc(C(F)(F)F)c2)[C@H](Cc2ccccc2)C1: 8.00

I = O=C(Cc1ccccc1)N1CC[C@H](NCc2ccnc3ccccc23)C[C@H]1Cc1ccccc1
II = Cc1cc(C)cc(C(=O)N2CC[C@H](NCc3cc4ccccc4cn3)C[C@H]2Cc2ccccc2)c1
III = O=C(Nc1ccccc1)N[C@H]1CCN(C(=O)c2cc(Cl)cc(Cl)c2)[C@H](Cc2ccccc2)C1
Problem: // ranking: key=pIC50, reverse=True Lab note: final answer is the ordered label list.
Solution: II, III, I
